System Name: T1, human adenosine A2A receptor (A2aR) (human, UniProt P29274 1-412)
T1 construct: Assays used HEK293 cells stably overexpressing human A2aR (BPS Bioscience 79381), human A2aR-expressing CHO cells, or endogenous A2aR on human PBMC; also called human A2aR; hA2aR
T1 sequence (P29274 whole entry): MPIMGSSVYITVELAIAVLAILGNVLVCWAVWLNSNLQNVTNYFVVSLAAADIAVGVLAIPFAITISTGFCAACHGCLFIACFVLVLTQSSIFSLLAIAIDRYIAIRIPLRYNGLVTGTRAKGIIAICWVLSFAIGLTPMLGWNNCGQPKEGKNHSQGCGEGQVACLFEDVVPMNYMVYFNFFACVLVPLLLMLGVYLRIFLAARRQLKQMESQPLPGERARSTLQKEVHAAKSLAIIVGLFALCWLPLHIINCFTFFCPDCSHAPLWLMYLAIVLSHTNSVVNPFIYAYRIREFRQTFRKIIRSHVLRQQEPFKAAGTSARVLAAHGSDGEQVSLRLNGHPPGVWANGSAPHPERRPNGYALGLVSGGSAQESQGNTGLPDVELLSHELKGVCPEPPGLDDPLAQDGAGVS
Test Method Notes: flow cytometry, HEK293-hA2aR cells, supernatant 1 ug/ml
Observation Type: MFI (MFI)
State the answer as a number, implicitly in MFI.

# count of solved cases: 5
1) Hu3F8-H3/Hu3F8-L4 (antibody, human IgG1, V domains shown, Human IgG1 FES (L234F, L235E, P331S) and human Ig kappa constant domains) VH: EVQLVQSGAEVKKPGASVKVSCKASGFTFTRYWMNWVRQAPGQGLEWIGRIDPSDSETHYNHKFWGRATLTVDTSTSTVYMELSSLRSEDTAVYYCLRSLYGKGDYWGQGTTVTVSS VL: DIVMTQSPLSLPVTPGEPASISCRSSQSIVHSNGNTYLEWYLQKPGQSPQLLIYKVSNRFSGVPDRFSGSGSGTDFTLKISRVEAEDVGVYYCYQGSHVPLTFGGGTKVEIK ... 1840
2) Hu3F8-H4/Hu3F8-L4 (antibody, human IgG1, V domains shown, Human IgG1 FES (L234F, L235E, P331S) and human Ig kappa constant domains; also called Hu3F8 VH4/VL4) VH: EVQLVQSGAEVKKPGASVKVSCKASGFTFTRYWMNWVRQAPGQGLEWIGRIDPSDSETHYNHKFWGRATLTVDKSTSTVYMELSSLRSEDTAVYYCLRSLYGKGDYWGQGTTVTVSS VL: DIVMTQSPLSLPVTPGEPASISCRSSQSIVHSNGNTYLEWYLQKPGQSPQLLIYKVSNRFSGVPDRFSGSGSGTDFTLKISRVEAEDVGVYYCYQGSHVPLTFGGGTKVEIK ... 1880
3) Hu3F8-H3/Hu3F8-L3 (antibody, human IgG1, V domains shown, Human IgG1 FES (L234F, L235E, P331S) and human Ig kappa constant domains; also called Hu3F8 VH3/VL3) VH: EVQLVQSGAEVKKPGASVKVSCKASGFTFTRYWMNWVRQAPGQGLEWIGRIDPSDSETHYNHKFWGRATLTVDTSTSTVYMELSSLRSEDTAVYYCLRSLYGKGDYWGQGTTVTVSS VL: DVVMTQSPLSLPVTLGQPASISCRSSQSIVHSNGNTYLEWYQQRPGQSPRLLIYKVSNRFSGVPDRFSGSGSGTDFTLKISRVEAEDVGVYYCYQGSHVPLTFGGGTKVEIK ... 1860
4) Hu3F8-H1/Hu3F8-L3 (antibody, human IgG1, V domains shown, Human IgG1 FES (L234F, L235E, P331S) and human Ig kappa constant domains) VH: QVQLVQSGAEVKKPGASVKVSCKASGFTFTRYWMNWVRQAPGQGLEWMGRIDPSDSETHYNHKFWGRVTMTRDTSTSTVYMELSSLRSEDTAVYYCLRSLYGKGDYWGQGTTVTVSS VL: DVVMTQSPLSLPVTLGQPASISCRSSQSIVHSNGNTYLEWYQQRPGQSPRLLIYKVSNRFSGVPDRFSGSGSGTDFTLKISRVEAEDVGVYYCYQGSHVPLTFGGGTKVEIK ... 1810
5) Hu3F8-H4/Hu3F8-L3 (antibody, human IgG1, V domains shown, Human IgG1 FES (L234F, L235E, P331S) and human Ig kappa constant domains; also called Hu3F8 VH4/VL3) VH: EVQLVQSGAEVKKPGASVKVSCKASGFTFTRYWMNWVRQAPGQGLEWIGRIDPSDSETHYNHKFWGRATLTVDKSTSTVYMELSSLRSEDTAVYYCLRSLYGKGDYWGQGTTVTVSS VL: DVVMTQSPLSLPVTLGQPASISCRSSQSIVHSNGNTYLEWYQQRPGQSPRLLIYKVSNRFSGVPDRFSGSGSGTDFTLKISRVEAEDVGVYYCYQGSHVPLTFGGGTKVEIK ... 1910

[Q] Read off the recorded MFI for Hu3F8-H5/Hu3F8-L5 (antibody, human IgG1, V domains shown, Human IgG1 FES (L234F, L235E, P331S) and human Ig kappa constant domains) VH: EVQLVQSGAEVKKPGASVKVSCKASGFTFTRYWMNWVRQAPGQGLEWIGRIDPSDSETHYNAKFWGRATLTVDKSTSTVYMELSSLRSEDTAVYYCLRSLYGKGDYWGQGTTVTVSS VL: DVVMTQSPLSLPVTPGEPASISCRSSQSIVHSNGNTYLEWYLQKPGQSPQLLIYKVSNRFSGVPDRFSGSGSGTDFTLKISRVEAEDVGVYYCYQGSHVPLTFGGGTKVEIK
[A] 1900

[Q] In one line, give reported MFI of the entry Hu3F8-H3/Hu3F8-L5 (antibody, human IgG1, V domains shown, Human IgG1 FES (L234F, L235E, P331S) and human Ig kappa constant domains; also called Hu3F8 VH3/VL5) VH: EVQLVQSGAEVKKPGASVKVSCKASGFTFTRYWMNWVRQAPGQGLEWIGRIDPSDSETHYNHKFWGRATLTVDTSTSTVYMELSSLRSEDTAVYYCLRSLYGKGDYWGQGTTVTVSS VL: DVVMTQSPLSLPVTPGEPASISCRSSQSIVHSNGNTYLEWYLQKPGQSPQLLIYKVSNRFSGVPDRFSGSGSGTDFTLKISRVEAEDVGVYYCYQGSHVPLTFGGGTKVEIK .
[A] 1850

[Q] Check the records and state MFI for Hu3F8-H2/Hu3F8-L5 (antibody, human IgG1, V domains shown, Human IgG1 FES (L234F, L235E, P331S) and human Ig kappa constant domains; also called Hu3F8 VH2/VL5) VH: EVQLVQSGAEVKKPGASVKVSCKASGFTFTRYWMNWVRQAPGQGLEWMGRIDPSDSETHYNHKFWGRVTMTVDTSTSTVYMELSSLRSEDTAVYYCLRSLYGKGDYWGQGTTVTVSS VL: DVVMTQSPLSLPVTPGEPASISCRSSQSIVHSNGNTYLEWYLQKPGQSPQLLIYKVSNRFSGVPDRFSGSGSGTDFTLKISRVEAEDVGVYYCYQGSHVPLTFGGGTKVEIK
[A] 1770

[Q] Write down MFI measured for item Hu3F8-H1/Hu3F8-L5 (antibody, human IgG1, V domains shown, Human IgG1 FES (L234F, L235E, P331S) and human Ig kappa constant domains; also called Hu3F8 VH1/VL5) VH: QVQLVQSGAEVKKPGASVKVSCKASGFTFTRYWMNWVRQAPGQGLEWMGRIDPSDSETHYNHKFWGRVTMTRDTSTSTVYMELSSLRSEDTAVYYCLRSLYGKGDYWGQGTTVTVSS VL: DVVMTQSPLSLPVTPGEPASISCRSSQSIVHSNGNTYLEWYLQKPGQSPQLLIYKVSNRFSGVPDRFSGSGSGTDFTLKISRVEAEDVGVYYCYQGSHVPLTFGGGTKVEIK
[A] 1790

[Q] Quickly give me recorded MFI for Hu3F8-H6/Hu3F8-L3 (antibody, human IgG1, V domains shown, Human IgG1 FES (L234F, L235E, P331S) and human Ig kappa constant domains; also called Hu3F8 VH6/VL3) VH: EVQLVQSGAEVKKPGESLRISCKASGFTFTRYWMNWVRQMPGKGLEWIGRIDPSDSETHYNHKFWGHATLSVDKSSSTVYLQWSSLKASDTAMYYCLRSLYGKGDYWGQGTTVTVSS VL: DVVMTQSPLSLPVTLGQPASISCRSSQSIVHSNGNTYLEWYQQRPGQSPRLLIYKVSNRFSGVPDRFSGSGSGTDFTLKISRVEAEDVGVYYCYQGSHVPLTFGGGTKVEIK
[A] 1880
